Measured ΔGEXP RARα, listed per entry.
Target of assay: RARα (Homo sapiens, UniProt P10276)
Construct: His6-3C-NusA (cleaved yes); made in house; host or cells: E. coli BL21(DE3), pET50b vector
Sequence (P10276 183-417 limits assumed): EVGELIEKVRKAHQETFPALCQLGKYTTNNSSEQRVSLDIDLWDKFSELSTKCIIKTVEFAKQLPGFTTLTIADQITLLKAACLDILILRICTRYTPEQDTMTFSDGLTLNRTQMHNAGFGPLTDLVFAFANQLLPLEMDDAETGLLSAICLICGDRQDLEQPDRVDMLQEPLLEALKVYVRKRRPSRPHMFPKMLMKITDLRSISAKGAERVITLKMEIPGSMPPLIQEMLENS
Experiment description: Fluorescence competition binding assay (displacement of DC271)
Measurement context: experimental binding free energy from K D, ΔGexp=−RT ln K, 298.1 K
Expressed in kcal/mol, but write only the number.

CC1(C)CCC(C)(C)c2nc(C#Cc3ccc(C(=O)O)cc3F)cnc21 | -9.13

Continue with the molecule presented below.
Fill in: ΔGEXP RARα of Cc1sc(-c2ccc(C(=O)O)c(F)c2)nc1-c1cnc2c(n1)C(C)(C)CCC2(C)C is ___
-9.27
